assay: in vitro; conditions: rat, gh3-tre-luc cells, AC50 (uM) modified / 1000, Tox21_110001=Tox21_200675; viability, 1 nM T3 present, 24 h
endpoint: CC50 at 24 h

CC50 at 24 h reported for this molecule Oc1ccc(Cl)c(Cl)c1 [3,4-Dichlorophenol] : > 90 µM

====

tested on: GH3-TRE-Luc cell line; settings: read-out: AC50 (uM) modified / 1000; Tox21_110001=Tox21_112018; viability, 1 nM T3 present, 24 h
endpoint: CC50 (µM)
// units = µM; emit number, no label

CC50 reported for this compound CN1CCCCC1CCN1c2ccccc2Sc2ccc([S+](C)[O-])cc21 (stereo not shown) [Mesoridazine] : 18.9

====

assay: in vitro; details: rat, gh3-tre-luc cells, AC50 (uM) modified / 1000, Tox21_110001=Tox21_202584; viability, 1 nM T3 present, 24 h
Structures can show the parent of a compound that is named as a salt.
endpoint: CC50 at 24 h

CC50 at 24 h reported for this compound Nc1ccc(-c2ccc(N)cc2)cc1 [Benzidine dihydrochloride] : > 50 µM

====

experiment: in vitro; conditions: rat, gh3-tre-luc cells, AC50 (uM) modified / 1000, Tox21_110001=Tox21_201525; viability, 1 nM T3 present, 24 h
endpoint: CC50 at 24 h

CC50 at 24 h reported for this molecule CSSC [Methyl disulfide] : > 90 µM

====

system: GH3-TRE-Luc cell line; conditions: read-out: AC50 (uM) modified / 1000; Tox21_110001=Tox21_302932; viability, 1 nM T3 present, 24 h
endpoint: CC50 (µM)
// units = µM; emit number, no label

CC50 reported for this molecule Oc1c(Cl)cc(Cl)c(Cl)c1Cl : 64.3

====

Below: a set of entries, each annotated with reported CC50 at 24 h.
experiment: in vitro; settings: rat, gh3-tre-luc cells, AC50 (uM) modified / 1000

Solved entries:
molecule	CC50 at 24 h
O=C(/C=C/c1ccccc1)NCCO [Idrocilamide]	> 50 µM
C=CC(=O)OCCCCCC(C)C [Isooctyl acrylate]	> 100 µM
C[C@H]1O[C@H](O[C@H]2[C@H](O)[C@@H](O)[C@@H](O[C@@H]([C@H](O)[C@@H](O)C=O)[C@H](O)CO)O[C@@H]2CO)[C@H](O)[C@@H](O)[C@@H]1N[C@H]1C=C(CO)[C@@H](O)[C@H](O)[C@H]1O [Acarbose]	> 50 µM

CC50 at 24 h reported for this molecule O=C1CC2CC1C1CCCC21 (stereo not shown) [Corodane] : > 90 µM

CC50 at 24 h reported for this molecule CC(C)CC(=O)CC(C)CC(C)C (stereo not shown) [2,6,8-Trimethyl-4-nonanone] : > 90 µM

CC50 at 24 h reported for this molecule COc1ccc(C(=O)c2ccc(OC)cc2O)c(O)c1 : > 90 µM

CC50 at 24 h reported for this molecule CN [Methylammonium nitrate] : > 100 µM

CC50 at 24 h reported for this molecule Oc1c(I)cc(Cl)c2cccnc12 [Clioquinol] : 43.1 µM

CC50 at 24 h reported for this molecule O=C(Cl)c1cc(Cl)cc(Cl)c1 [3,5-Dichlorobenzoyl chloride] : > 90 µM

CC50 at 24 h reported for this molecule O=[N+]([O-])c1cccc(Cl)c1 [1-Chloro-3-nitrobenzene] : > 90 µM
